# System: Saccharomyces cerevisiae BY4741 SeMeCo community
# Procedure Text: z-score of subpopulation abundance vs DMSO median, subpopulation auxotrophic for HM; higher = larger share of this subpopulation than in DMSO controls
# Measurement Context: 10 µM; 24 h; SM minimal medium; subpopulation (auxotrophy): HM
Where a name gives a salt, the structure may show the parent alone.
Answer each item with its documented z-score of subpopulation abundance.
Respond numerically, and do not add a unit to the figure.

Query block: Recorded z-score of subpopulation abundance for Nc1c2c(nc3ccccc13)CCCC2 [Tacrine hydrochloride hydrate] , please?
Result block: -0.01

Query block: Entry Cc1onc(-c2ccccc2)c1C(=O)N[C@@H]1C(=O)N2[C@@H]1SC(C)(C)[C@@H]2C(=O)O [Oxacillin sodium monohydrate] please
Result block: -0.14

Query block: Same lookup for CCOC(=O)OC(C)OC1=C(C(=O)Nc2ccccn2)N(C)S(=O)(=O)c2ccccc21 (stereo not given) [Ampiroxicam] , please.
Result block: -0.5

Query block: Try O=C(O)c1ccccc1O [Salicylic acid] next.
Result block: 0.33

Query block: Moving on to the next compound: COc1cccc(-c2c(C)n(Cc3c(F)cccc3C(F)(F)F)c(=O)n(C[C@H](NCCCC(=O)O)c3ccccc3)c2=O)c1F [Elagolix Sodium]
Result block: -0.13

Query block: Also O=C(O)CCc1nc(-c2ccccc2)c(-c2ccccc2)o1 [Oxaprozin] ?
Result block: -0.83

Query block: Also CS(=O)(=O)c1ccc([C@@H](O)[C@@H](CF)NC(=O)C(Cl)Cl)cc1 [Florfenicol] ?
Result block: -1.52

Query block: What do we get for O=C(C1CCCCC1)N1CC(=O)N2CCc3ccccc3C2C1 (stereo not given) [Praziquantel] ?
Result block: -0.5

Query block: Also CC(C)NNC(=O)c1ccncc1 [Iproniazid] ?
Result block: -0.24

Query block: Let us now turn to Cc1cccc(C)c1NC(=O)C1CCCCN1C (stereo not given) [Mepivacaine]
Result block: -0.49

Query block: Quick one: CN1CCCN=C1/C=C/c1cccs1 [Pyrantel Pamoate]
Result block: 0.03

Query block: # iterate: NC[C@@H]1O[C@H](O[C@H]2[C@@H](O)[C@H](O[C@@H]3[C@@H](O)[C@H](N)C[C@H](N)[C@H]3O[C@H]3O[C@H](CN)[C@@H](O)[C@H](O)[C@H]3N)O[C@@H]2CO)[C@H](N)[C@@H](O)[C@@H]1O [Neomycin sulfate]
Result block: -1.14

Query block: Now give it for CN(C)CCCN1c2ccccc2CCc2ccc(Cl)cc21 [Clomipramine HCl] too.
Result block: 0.1

Query block: Another compound: C[C@H]1O[C@@H](O[C@H]2[C@@H](O)C[C@H](O[C@H]3[C@@H](O)C[C@H](O[C@H]4CC[C@@]5(C)[C@H](CC[C@@H]6[C@@H]5C[C@@H](O)[C@]5(C)[C@@H](C7=CC(=O)OC7)CC[C@]65O)C4)O[C@@H]3C)O[C@@H]2C)C[C@H](O)[C@@H]1O [Digoxin]
Result block: -0.55

Query block: And what about the compound O=C1[C@@H]2[C@H]3CC[C@H](C3)[C@@H]2C(=O)N1C[C@@H]1CCCC[C@H]1CN1CCN(c2nsc3ccccc23)CC1 [lurasidone] ?
Result block: -0.31

Query block: Try this compound next: Cc1ccnc(NS(=O)(=O)c2ccc(N)cc2)n1 [Sulfamerazine]
Result block: 2

Query block: Okay, and COCC1=C(C(=O)OC(C)OC(=O)OC(C)C)N2C(=O)[C@@H](NC(=O)/C(=N\OC)c3csc(N)n3)[C@H]2SC1 (stereo not given in full) [Cefpodoxime proxetil] ?
Result block: 0.76

Query block: Again, but for CN1CCN2c3ncccc3Cc3ccccc3C2C1 (stereo not given) [Mirtazapine]
Result block: -0.07

Query block: Next record, please: CCCc1cc(C(N)=S)ccn1 [Protionamide]
Result block: 0.36

Query block: Check Nc1ccc(S(=O)(=O)Nc2ccccn2)cc1 [Sulfapyridine] too.
Result block: -0.46

Query block: Would you mind doing CC(C)c1c(C(=O)Nc2ccccc2)c(-c2ccccc2)c(-c2ccc(F)cc2)n1CC[C@@H](O)C[C@@H](O)CC(=O)O [Atorvastatin Calcium] as well?
Result block: 9.85

Query block: Same lookup for CO[C@H]1C[C@@H]2CC[C@@H](C)[C@@](O)(O2)C(=O)C(=O)N2CCCC[C@H]2C(=O)O[C@H]([C@H](C)C[C@@H]2CC[C@@H](OCCO)[C@H](OC)C2)CC(=O)[C@H](C)/C=C(\C)[C@@H](O)[C@@H](OC)C(=O)[C@H](C)C[C@H](C)/C=C/C=C/C=C/1C [Everolimus (RAD001)] , please.
Result block: 22.4

Query block: And for COc1ccc(Cl)cc1C(=O)NCCc1ccc(S(=O)(=O)NC(=O)NC2CCCCC2)cc1 [Glyburide (Glibenclamide)] ?
Result block: 0.56

Query block: How about this compound: Cc1nc2n(c(=O)c1CCN1CCC(c3noc4cc(F)ccc34)CC1)CCCC2O (stereo not given) [Paliperidone]
Result block: 0.04

Query block: Same lookup for CCOc1ccc2nc3cc(N)ccc3c(N)c2c1 [Ethacridine lactate monohydrate] , please.
Result block: 5.32

Query block: Moving on to the next compound: COC(=O)Nc1nc2cc([S+]([O-])c3ccccc3)ccc2[nH]1 (stereo not given) [Oxfendazole]
Result block: -0.28

Query block: Item: Cc1ncc([N+](=O)[O-])n1CC(C)O (stereo not given) [Secnidazole]
Result block: -0.21

Query block: Also need Cc1c(C)c2c(c(C)c1O)CCC(C)(CCCC(C)CCCC(C)CCCC(C)C)O2 (stereo not given) [Vitamin E] , thanks.
Result block: -1.28

Query block: Here is the next compound: C[C@@H](O)[C@H]1C(=O)N2C(C(=O)OCOC(=O)C(C)(C)C)=C(SC3CN(C4=NCCS4)C3)[C@H](C)[C@H]12 [Tebipenem Pivoxil]
Result block: -0.9

Query block: Please answer likewise for Cc1c(OCC(F)(F)F)ccnc1C[S@@+]([O-])c1nc2ccccc2[nH]1 [Dexlansoprazole]
Result block: 0

Origin of values: the supplement of paper PMC8975748
